Sourced from patent US20220041746A1

# TARGET_SYSTEM: T1, cynomolgus monkey CD38 expressed on the cell surface (cynomolgus monkey, UniProt Q5VAN0 1-301)
# T1 construct: whole, on cells; also called cCD38-expressing cells
# PROTOCOL_SUMMARY: flow cytometry (column FACS EC50 nM, cyno)
QUANTITY_MEASURED: EC50 (nM)
Express the result in nM but write the number alone.

| BINDER | UNIT_TAG | EC50 |
| --- | --- | --- |
| mAb2 (antibody, human IgG1, kappa, V domains shown, also called antiCD38_C2-CD38-1_VH1-VL1; CD38VH1) VH: QVQLVQSGAEVVKPGASVKVSCKASGYTFTSYAMHWVKEAPGQRLEWIGYIYPGQGGTNYNQKFQGRATLTADTSASTAYMELSSLRSEDTAVYFCARTGGLRRAYFTYWGQGTLVTVSS VL: DIVLTQSPATLSLSPGERATISCRASQSVSSYGQGFMHWYQQKPGQPPRLLIYGASSRATGIPARFSGSGSGTDFTLTISPLEPEDFAVYYCQQNKEDPWTFGGGTKLEIKR | nM | 0.76 |
| mAb5 (antibody, human IgG1, kappa, V domains shown, also called antiCD38_C2-CD38-1_VH6-VL3) VH: QVQLVQSGAEVVKPGASVKMSCKASGYTFTSFNMHWVKEAPGQRLEWIGYIYPGNGGTNYNQKFQGRATLTADTSASTAYMEISSLRSEDTAVYFCARTGGLRRAYFTYWGQGTLVTVSS VL: DIVLTQSPATLSLSPGERATISCRASESVDSYGNGFMHWYQQKPGQPPRLLIYLASSRATGIPARFSGSGSGTDFTLTISPLEPEDFAVYYCQQNKEDPWTFGGGTKLEIKR | nM | 1.06 |
| mAb3 (antibody, human IgG1, kappa, V domains shown, also called antiCD38_C2-CD38-1_VH3-VL3) VH: QVQLVQSGAEVVKPGASVKVSCKASGYTFTSFNMHWVKEAPGQRLEWIGYIYPGNGGTNYNQKFQGRATLTADTSASTAYMELSSLRSEDTAVYFCARTGGLRRAYFTYWGQGTLVTVSS VL: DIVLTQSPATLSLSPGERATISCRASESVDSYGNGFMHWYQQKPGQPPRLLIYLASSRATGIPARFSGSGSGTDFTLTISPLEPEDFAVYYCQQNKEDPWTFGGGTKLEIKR | nM | 1.31 |

Entry mAb4 (antibody, human IgG1, kappa, V domains shown, also called antiCD38_C2-CD38-1_VH5-VL3) VH: QVQLVQSGAEVVKSGASVKVSCKASGYTFTSFNMHWVKEAPGQGLEWIGYIYPGNGGTNYNQKFQGRATLTADTSASTAYMEISSLRSEDTAVYFCARTGGLRRAYFTYWGQGTLVTVSS VL: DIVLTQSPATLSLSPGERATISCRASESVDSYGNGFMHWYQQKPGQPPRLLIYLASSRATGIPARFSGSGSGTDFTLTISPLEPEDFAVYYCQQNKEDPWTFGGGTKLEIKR , EC50 reported as 1.15
